Measured max % inhibition, Abeta x-40 in mouse cortical neurons accompanies every entry in the list below.
# system.tested: BACE1 endogenous to primary cortical neurons from E16.5 CD1 mice (mouse, UniProt P56818 46-501)
# Sequence (P56818 46-501): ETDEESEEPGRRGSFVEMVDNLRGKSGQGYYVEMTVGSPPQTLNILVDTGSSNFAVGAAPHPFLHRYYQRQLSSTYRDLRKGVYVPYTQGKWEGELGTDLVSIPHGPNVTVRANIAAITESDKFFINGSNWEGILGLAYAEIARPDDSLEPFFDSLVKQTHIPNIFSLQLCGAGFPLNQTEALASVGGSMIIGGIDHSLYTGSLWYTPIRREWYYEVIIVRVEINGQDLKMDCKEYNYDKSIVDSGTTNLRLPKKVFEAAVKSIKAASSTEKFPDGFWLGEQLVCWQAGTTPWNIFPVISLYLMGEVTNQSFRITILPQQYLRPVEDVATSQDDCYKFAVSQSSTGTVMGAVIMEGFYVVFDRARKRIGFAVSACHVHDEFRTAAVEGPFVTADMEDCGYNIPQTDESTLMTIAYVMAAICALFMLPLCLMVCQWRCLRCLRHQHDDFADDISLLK
# assay.text: cell-based or functional assay
State just the number; it will be interpreted in %.

# annotated cases, reported max % inhibition, Abeta x-40 in mouse cortical neurons shown
* 5903 (antibody, V domains shown) VH: QLQLQESGPGLVKPSETLSLTCTVSGGSISSSSYYWGWIRQPPGKGLEWIGMIYYSGSTWYNPSLKSRVTISVDTSKNQFSLKLSSVTAADTAVYYCARVGHGISYFDLWGRGTLVTVSS VL: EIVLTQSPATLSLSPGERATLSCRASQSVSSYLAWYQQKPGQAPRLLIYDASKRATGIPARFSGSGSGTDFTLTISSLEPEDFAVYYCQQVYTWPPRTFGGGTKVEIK | 72
* 6280 (antibody, V domains shown) VH: QLQLQESGPGLVKPSETLSLTCTVSGGSTSSSSYYWGWIRQPPGKGLEWIGSIYRSGSTYYNPSFKSRVTISVDTSKNQFSLKLSSVTAADTAVYYCARVGHGISYFDLWGRGTLVTVSS VL: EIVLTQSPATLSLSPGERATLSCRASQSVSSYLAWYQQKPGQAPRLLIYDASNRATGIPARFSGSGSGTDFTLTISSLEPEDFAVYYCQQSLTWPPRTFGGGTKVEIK | 65

With those in mind, consider the next binder.
The binder identified as 6290 (antibody, V domains shown) VH: QLQLQESGPGLVKPSETLSLTCTVSGGSISSSSYYWGWIRQPPGKGLEWIGMIYYSGSTWYNPSLKSRVTISVDTSKNQFSLKLSSVTAADTAVYYCARVGLGVSYFDLWGRGTLVTVSS VL: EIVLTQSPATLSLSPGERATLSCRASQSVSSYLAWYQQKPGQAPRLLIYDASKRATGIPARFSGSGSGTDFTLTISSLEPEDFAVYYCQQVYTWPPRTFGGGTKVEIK registered its max % inhibition, Abeta x-40 in mouse cortical neurons at 63
